Tested on: Candida albicans (NCPF 1467)
Format: cell-based
particulars: NCPF 1467, 24 h
Where a SMILES comes first, the peptide text is derived from it.
assay-metric: MIC (µM)
Unit µM implied. Number only.

CC[C@H](C)[C@H](NC(=O)[C@H](CCCCN)NC(=O)[C@@H]1CCCN1C(=O)[C@H](CC(C)C)NC(=O)[C@@H](N)Cc1ccccc1)C(=O)N[C@@H](CC(C)C)C(=O)N[C@@H](CCCCN)C(=O)N[C@H](C(=O)N[C@@H](C)C(=O)N[C@@H](C)C(=O)N[C@@H](CCCCN)C(N)=O)C(C)C [OSc] (H-FLPKILKVAAK-NH2) = 256

# next molecule below
Using the record for CC(C)C[C@H](NC(=O)[C@H](C)NC(=O)[C@H](Cc1c[nH]c2ccccc12)NC(=O)[C@H](CCCCN)NC(=O)[C@H](CC(C)C)NC(=O)[C@@H](N)Cc1ccccc1)C(=O)N[C@@H](CCCCN)C(=O)N[C@@H](Cc1c[nH]c2ccccc12)C(=O)N[C@@H](C)C(=O)N[C@@H](C)C(=O)N[C@@H](CCCCN)C(N)=O [OSe] (H-FLKWALKWAAK-NH2) , state its measured MIC.
4

====

Test system: Methicillin-resistant Staphylococcus aureus (MRSA, ATCC 12493)
Format: cell-based
particulars: ATCC 12493, 18 h
Where a SMILES comes first, the peptide text is derived from it.
assay-metric: MBC

State MBC (Methicillin-resistant Staphylococcus aureus (MRSA, ATCC 12493)) of CC[C@H](C)[C@H](NC(=O)[C@@H](NC(=O)CNC(=O)[C@@H]1CCCN1C(=O)[C@@H](NC(=O)[C@@H](NC(=O)[C@H](CC(N)=O)NC(=O)[C@H](C)NC(=O)[C@H](C)NC(=O)[C@@H](NC(=O)[C@H](CCCCN)NC(=O)[C@H](CC(C)C)NC(=O)[C@@H](NC(=O)CNC(=O)[C@@H]1CCCN1C(=O)[C@H](CC(C)C)NC(=O)[C@@H](N)Cc1ccccc1)[C@@H](C)CC)C(C)C)C(C)C)C(C)C)C(C)C)C(=O)O [OSa] (H-FLPGILKVAANVVPGVI-OH) .
> 512 µM

====

In this section we review reported MIC values for a set of compounds.
System: Candida albicans (NCPF 1467)
Assay type: cell-based
particulars: NCPF 1467, 24 h
Where a SMILES comes first, the peptide text is derived from it.
The figure you give is taken to be in µM; do not add the unit.

Worked examples follow.
CC[C@H](C)[C@H](NC(=O)CNC(=O)[C@@H]1CCCN1C(=O)[C@H](CC(C)C)NC(=O)[C@@H](N)Cc1ccccc1)C(=O)N[C@@H](CC(C)C)C(=O)N[C@@H](CCCCN)C(=O)N[C@H](C(=O)N[C@@H](C)C(=O)N[C@@H](C)C(=O)N[C@@H](CCCCN)C(N)=O)C(C)C [OSb] (H-FLPGILKVAAK-NH2) = 512
CC(C)C[C@H](NC(=O)[C@H](C)NC(=O)[C@H](Cc1c[nH]c2ccccc12)NC(=O)[C@H](CCCCN)NC(=O)[C@H](CC(C)C)NC(=O)[C@@H](N)Cc1ccccc1)C(=O)N[C@@H](CCCCN)C(=O)N[C@H](C(=O)N[C@@H](C)C(=O)N[C@@H](C)C(=O)N[C@@H](CCCCN)C(N)=O)C(C)C [OSd] (H-FLKWALKVAAK-NH2) = 16

Now examine the next entry.
Name the recorded MIC of the item CC(C)C[C@H](NC(=O)[C@H](C)NC(=O)[C@H](Cc1c[nH]c2ccccc12)NC(=O)[C@H](CCCCN)NC(=O)[C@@H]1CCCN1C(=O)[C@H](CC(C)C)NC(=O)[C@@H](N)Cc1ccccc1)C(=O)N[C@@H](CCCCN)C(=O)N[C@@H](Cc1c[nH]c2ccccc12)C(=O)N[C@@H](C)C(=O)N[C@@H](C)C(=O)N[C@@H](CCCCN)C(N)=O [OSf] (H-FLPKWALKWAAK-NH2; N-terminus assumed) in your answer.
8

Where these numbers come from: paper PMC7472354
